Value source: paper PMC6804443

test system: ALDH; assay type: in vitro ADME; settings: human, pooled human liver cytosol
QUANTITY NAME: inhibition at 100 μmol/L

compound="C[C@@H]1[C@H](O)[C@@H](C)/C=C/C=C/C=C/C=C/C=C/C=C/C=C/[C@H](O[C@@H]2O[C@H](C)[C@@H](O)[C@H](N)[C@@H]2O)C[C@@H]2O[C@](O)(C[C@@H](O)C[C@@H](O)[C@H](O)CC[C@@H](O)C[C@@H](O)CC(=O)O[C@H]1C)C[C@H](O)[C@H]2C(=O)O [A42, amphotericin B]" system_tested=ALDH quantity_name="inhibition at 100 μmol/L" result="56 to 88%"
